conditions: 298.15 K; 101 kPa; Liquid
Measurement Kind: viscosity (mPa·s)
Provide only the numeric value, understood in mPa·s.

Prompt: Bench note: what viscosity did CCn1cc[n+](C)c1.F[B-](F)(F)F [1-ethyl-3-methylimidazolium tetrafluoroborate] show?
Response: 36.9

Prompt: Give its viscosity value. Item: CCCCn1cc[n+](C)c1.F[B-](F)(F)F [1-butyl-3-methylimidazolium tetrafluoroborate]
Response: 99.2

Prompt: Quick check: viscosity of CCO [ethanol] ?
Response: 1.091

Prompt: Fill blank: measured viscosity of the molecule CCCCCCCC[n+]1ccn(C)c1.F[B-](F)(F)F [1-methyl-3-octylimidazolium tetrafluoroborate] is ____.
Response: 337.4

Prompt: Reported viscosity, molecule CCCCCCn1cc[n+](C)c1.F[B-](F)(F)F [1-hexyl-3-methylimidazolium tetrafluoroborate] : ____
Response: 190.9

====

conditions: 298.15 K; 101 kPa; Liquid; Crison GLP 31+ conductivimeter
Measurement Kind: log10 of electrical conductivity (log10 of the value in S/m)
Record value = log10 of electrical conductivity given in S/m.

Prompt: Reported log10 of electrical conductivity for CCn1cc[n+](C)c1.F[B-](F)(F)F [1-ethyl-3-methylimidazolium tetrafluoroborate] : what is it?
Response: 0.21

Prompt: Look up log10 of electrical conductivity for this molecule: CCCCCCCC[n+]1ccn(C)c1.F[B-](F)(F)F [1-methyl-3-octylimidazolium tetrafluoroborate]
Response: -1.16

Prompt: Fill in: log10 of electrical conductivity of CCO is ___
Response: -4.52

Prompt: Returns the measured log10 of electrical conductivity for the input molecule. Input: CCCCn1cc[n+](C)c1.F[B-](F)(F)F [1-butyl-3-methylimidazolium tetrafluoroborate]
Response: -0.45

Prompt: # query: log10 of electrical conductivity of entry CCCCCCn1cc[n+](C)c1.F[B-](F)(F)F [1-hexyl-3-methylimidazolium tetrafluoroborate]
Response: -0.90

====

conditions: 308.15 K; 101 kPa; Liquid
Measurement Kind: viscosity (mPa·s)
Give the value, in units of mPa·s, as a plain number.

Prompt: // viscosity lookup, key: CCn1cc[n+](C)c1.F[B-](F)(F)F [1-ethyl-3-methylimidazolium tetrafluoroborate]
Response: 26

Prompt: # viscosity lookup, item CCCCn1cc[n+](C)c1.F[B-](F)(F)F [1-butyl-3-methylimidazolium tetrafluoroborate]
Response: 61.3

Prompt: Would you mind telling me what viscosity value was observed for CCCCCCn1cc[n+](C)c1.F[B-](F)(F)F [1-hexyl-3-methylimidazolium tetrafluoroborate] ?
Response: 110.3

Prompt: Find the recorded viscosity belonging to CCCCCCCC[n+]1ccn(C)c1.F[B-](F)(F)F [1-methyl-3-octylimidazolium tetrafluoroborate] and report it.
Response: 187.7

Prompt: Which viscosity value belongs to CCO ?
Response: 0.9153
